experimentalProtocol: Static thermostability (GARDNER method), rigid PVC sheets, 210° C., 0.3 part stabilizer
statedConditions: 9 min
readoutName: coloration, GARDNER scale
Simply state the number, no unit and no words.

## Task Could you share which coloration, GARDNER scale value was measured for `CC1=C(C(=O)OCCCl)CC(C(=O)OCCCl)=C(C)N1` ?
## Result 4

## Task Could you share which coloration, GARDNER scale value was measured for `CC1=C(C(=O)OCCOCCCl)CC(C(=O)OCCOCCCl)=C(C)N1` ?
## Result 2

## Task Could you share which coloration, GARDNER scale value was measured for `CC1=C(C(=O)OCc2ccccc2Cl)CC(C(=O)OCc2ccccc2Cl)=C(C)N1` ?
## Result 3

====

Answer each item with its documented coloration, GARDNER scale.
experimentalProtocol: Static thermostability (GARDNER method), rigid PVC sheets, 185° C., 0.3 part stabilizer
statedConditions: 30 min
Simply state the number, no unit and no words.

## Task Could you share which coloration, GARDNER scale value was measured for `C=CCOC(=O)C1=C(C)NC(C)=C(C(=O)OCC=C)C1` ?
## Result 10

## Task Could you share which coloration, GARDNER scale value was measured for `C#CCOC(=O)C1=C(C)NC(C)=C(C(=O)OCC#C)C1` ?
## Result 8.5

## Task Could you share which coloration, GARDNER scale value was measured for `CC1=C(C(=O)OCCCl)CC(C(=O)OCCCl)=C(C)N1` ?
## Result 13

====

experimentalProtocol: Static thermostability (GARDNER method), rigid PVC sheets, 185° C., 0.3 part stabilizer
statedConditions: 30 min
Answer each item with its documented coloration, GARDNER scale.

## Task Could you share which coloration, GARDNER scale value was measured for `CC1=C(C(=O)OCc2ccccc2Cl)CC(C(=O)OCc2ccccc2Cl)=C(C)N1` ?
## Result 13

## Task Could you share which coloration, GARDNER scale value was measured for `CC1=C(C(=O)OCc2ccccc2)CC(C(=O)OCc2ccccc2)=C(C)N1` ?
## Result 13

## Task Could you share which coloration, GARDNER scale value was measured for `COc1ccc(COC(=O)C2=C(C)NC(C)=C(C(=O)OCc3ccc(OC)cc3)C2)cc1` ?
## Result 17

## Task Could you share which coloration, GARDNER scale value was measured for `CC1=C(C(=O)OCc2ccccc2C)CC(C(=O)OCc2ccccc2C)=C(C)N1` ?
## Result 13

Taken from patent US4317768A.
